tested on: Haemophilus influenzae; experiment: Antibacterial activity against Haemophilus influenzae after 24 hrs by microdilution method; type: functional
recorded-endpoint: MIC

smiles-input	experimental-system	observed-result
CC[C@H]1OC(=O)[C@H](C)[C@@H](O)[C@H](C)[C@@H](O[C@@H]2O[C@H](C)C[C@H](N(C)C)[C@H]2O)[C@](C)(O)C[C@@H](C)CN(C(=O)Nc2cccc(C(F)(F)F)c2)[C@H](C)[C@@H](O)[C@]1(C)O	Haemophilus influenzae	> 64 µg/mL
CC[C@H]1OC(=O)/C(C)=C\[C@H](C)[C@@H](O[C@@H]2O[C@H](C)C[C@H](N(C)C)[C@H]2O)[C@](C)(OC)C[C@@H](C)CN(C(=O)Nc2ccc(Cl)cc2Cl)[C@H](C)[C@@H](O)[C@]1(C)O	Haemophilus influenzae	> 64 µg/mL
CC[C@H]1OC(=O)[C@H](C)[C@@H](O)[C@H](C)[C@@H](O[C@@H]2O[C@H](C)C[C@H](N(C)C)[C@H]2O)[C@](C)(O)C[C@@H](C)CN(C(=S)Nc2cccc(C(F)(F)F)c2)[C@H](C)[C@@H](O)[C@]1(C)O	Haemophilus influenzae	> 64 µg/mL
CC[C@H]1OC(=O)[C@H](C)[C@@H](OC(=O)Cc2ccc([N+](=O)[O-])cc2)[C@H](C)[C@@H](O[C@@H]2O[C@H](C)C[C@H](N(C)C)[C@H]2O)[C@](C)(O)C[C@@H](C)CN(C(=O)Nc2ccc(Cl)cc2Cl)[C@H](C)[C@@H](O)[C@]1(C)O	Haemophilus influenzae	32 µg/mL
CC[C@H]1OC(=O)[C@H](C)[C@@H](O)[C@H](C)[C@@H](O[C@@H]2O[C@H](C)C[C@H](N(C)C)[C@H]2O)[C@](C)(O)C[C@@H](C)CN(C(=O)Nc2ccccc2C(F)(F)F)[C@H](C)[C@@H](O)[C@]1(C)O	Haemophilus influenzae	> 64 µg/mL
CC[C@H]1OC(=O)[C@H](C)C2O[C@@](C)(C[C@@H](C)CN(C(=O)NC(C)C)[C@H](C)[C@@H](O)[C@]1(C)O)[C@H](O[C@@H]1O[C@H](C)C[C@H](N(C)C)[C@H]1O)[C@H]2C	Haemophilus influenzae	> 64 µg/mL
CC[C@H]1OC(=O)[C@H](C)[C@@H](O)[C@H](C)[C@@H](O[C@@H]2O[C@H](C)C[C@H](N(C)C)[C@H]2O)[C@](C)(OC)C[C@@H](C)CN(C(=O)Nc2ccc(Cl)cc2Cl)[C@H](C)[C@@H](O)[C@]1(C)O	Haemophilus influenzae	> 64 µg/mL
CC[C@H]1OC(=O)[C@H](C)[C@@H](O)[C@H](C)[C@@H](O[C@@H]2O[C@H](C)C[C@H](N(C)C)[C@H]2O)[C@](C)(O)C[C@@H](C)CN(C(=O)NC(C)(C)C)[C@H](C)[C@@H](O)[C@]1(C)O	Haemophilus influenzae	> 64 µg/mL
CC[C@H]1OC(=O)[C@H](C)[C@@H](O)[C@H](C)[C@@H](O[C@@H]2O[C@H](C)C[C@H](N(C)C)[C@H]2O)[C@](C)(O)C[C@@H](C)CN(C(=O)Nc2ccc(Cl)cc2Cl)[C@H](C)[C@@H](O)[C@]1(C)O	Haemophilus influenzae	> 64 µg/mL
CC[C@H]1OC(=O)[C@H](C)C(=O)[C@H](C)[C@@H](O[C@@H]2O[C@H](C)C[C@H](N(C)C)[C@H]2O)[C@](C)(OC)C[C@@H](C)CN(C(=O)NC(C)C)[C@H](C)[C@@H](O)[C@]1(C)O	Haemophilus influenzae	> 64 µg/mL
CC[C@H]1OC(=O)[C@H](C)[C@@H](O[C@H]2C[C@@](C)(OC)[C@@H](O)[C@H](C)O2)[C@H](C)[C@@H](O[C@@H]2O[C@H](C)C[C@H](N(C)C)[C@H]2O)[C@](C)(OC)C[C@@H](C)CN[C@H](C)[C@@H](O)[C@]1(C)O	Haemophilus influenzae	8 µg/mL
CC[C@H]1OC(=O)/C(C)=C\[C@H](C)[C@@H](O[C@@H]2O[C@H](C)C[C@H](N(C)C)[C@H]2O)[C@](C)(OC)C[C@@H](C)CN(C(=O)NC(C)C)[C@H](C)[C@@H](O)[C@]1(C)O	Haemophilus influenzae	> 64 µg/mL
CC[C@H]1OC(=O)[C@H](C)[C@@H](O[C@H]2C[C@@](C)(OC)[C@@H](O)[C@H](C)O2)[C@H](C)[C@@H](O[C@@H]2O[C@H](C)C[C@H](N(C)C)[C@H]2O)[C@](C)(O)C[C@@H](C)C(=O)[C@H](C)[C@@H](O)[C@]1(C)O	Haemophilus influenzae	4 µg/mL
C=CCNC(=S)N1C[C@H](C)C[C@@](C)(O)[C@H](O[C@@H]2O[C@H](C)C[C@H](N(C)C)[C@H]2O)[C@@H](C)[C@H](O)[C@@H](C)C(=O)O[C@H](CC)[C@@](C)(O)[C@H](O)[C@H]1C	Haemophilus influenzae	> 64 µg/mL

----------
Measured MIC accompanies every entry in the list below.
test system: Streptococcus pyogenes; assay: Antibacterial activity against Streptococcus pyogenes after 24 hrs by microdilution method; assay type: functional

smiles-input	MIC
CC[C@H]1OC(=O)[C@H](C)[C@@H](O)[C@H](C)[C@@H](O[C@@H]2O[C@H](C)C[C@H](N(C)C)[C@H]2O)[C@](C)(OC)C[C@@H](C)CN(C(=O)Nc2ccc(Cl)cc2Cl)[C@H](C)[C@@H](O)[C@]1(C)O	> 64 µg/mL
CC[C@H]1OC(=O)[C@H](C)C2O[C@@](C)(C[C@@H](C)CN(C(=O)Nc3ccc(Cl)cc3Cl)[C@H](C)[C@@H](O)[C@]1(C)O)[C@H](O[C@@H]1O[C@H](C)C[C@H](N(C)C)[C@H]1O)[C@H]2C	> 64 µg/mL

----------
test system: Saccharomyces cerevisiae; test: Toxicity against Saccharomyces cerevisiae; type: organism-based; settings: in vivo
recorded-endpoint: Activity

smiles-input	observed-result
CC[C@H]1OC(=O)/C(C)=C\[C@H](C)[C@@H](O[C@@H]2O[C@H](C)C[C@H](N(C)C)[C@H]2O)[C@](C)(OC)C[C@@H](C)CN(C(=O)Nc2ccc(Cl)cc2Cl)[C@H](C)[C@@H](O)[C@]1(C)O	Non-toxic
CC[C@H]1OC(=O)[C@H](C)C(=O)[C@H](C)[C@@H](O[C@@H]2O[C@H](C)C[C@H](N(C)C)[C@H]2O)[C@](C)(OC)C[C@@H](C)CN(C(=O)NC(C)C)[C@H](C)[C@@H](O)[C@]1(C)O	Non-toxic
CC[C@H]1OC(=O)[C@H](C)C2(O)O[C@@](C)(C[C@@H](C)CN(C(=O)Nc3ccc(Cl)cc3Cl)[C@H](C)[C@@H](O)[C@]1(C)O)[C@H](O[C@@H]1O[C@H](C)C[C@H](N(C)C)[C@H]1O)[C@H]2C	Non-toxic

----------
Measured MIC accompanies every entry in the list below.
system: Streptococcus pneumoniae; assay: Antibacterial activity against Streptococcus pneumoniae after 24 hrs by microdilution method; format: functional
recorded-endpoint: MIC

smiles-input	recorded-endpoint	observed-result
CC[C@H]1OC(=O)[C@H](C)[C@@H](O)[C@H](C)[C@@H](O[C@@H]2O[C@H](C)C[C@H](N(C)C)[C@H]2O)[C@](C)(O)C[C@@H](C)CN(C(=O)Nc2cccc(C(F)(F)F)c2)[C@H](C)[C@@H](O)[C@]1(C)O	MIC	> 64 µg/mL
CC[C@H]1OC(=O)[C@H](C)[C@@H](O)[C@H](C)[C@@H](O[C@@H]2O[C@H](C)C[C@H](N(C)C)[C@H]2O)[C@](C)(O)C[C@@H](C)CN(C(=S)NCc2ccccc2)[C@H](C)[C@@H](O)[C@]1(C)O	MIC	> 64 µg/mL
CC[C@H]1OC(=O)[C@H](C)[C@@H](O[C@H]2C[C@@](C)(OC)[C@@H](O)[C@H](C)O2)[C@H](C)[C@@H](O[C@@H]2O[C@H](C)C[C@H](N(C)C)[C@H]2O)[C@](C)(O)C[C@@H](C)C(=O)[C@H](C)[C@@H](O)[C@]1(C)O	MIC	0.125 µg/mL
C=CCNC(=S)N1C[C@H](C)C[C@@](C)(O)[C@H](O[C@@H]2O[C@H](C)C[C@H](N(C)C)[C@H]2O)[C@@H](C)[C@H](O)[C@@H](C)C(=O)O[C@H](CC)[C@@](C)(O)[C@H](O)[C@H]1C	MIC	> 64 µg/mL
CC[C@H]1OC(=O)[C@H](C)C2O[C@@](C)(C[C@@H](C)CN(C(=O)Nc3ccc(Cl)cc3Cl)[C@H](C)[C@@H](O)[C@]1(C)O)[C@H](O[C@@H]1O[C@H](C)C[C@H](N(C)C)[C@H]1O)[C@H]2C	MIC	> 64 µg/mL

----------
system: Streptococcus pyogenes; experiment: Antibacterial activity against Streptococcus pyogenes after 24 hrs by microdilution method; type: functional
recorded-endpoint: MIC (µg/mL)

smiles-input	experimental-system	inequality-sign	observed-result
CC[C@H]1OC(=O)[C@H](C)[C@@H](O[C@H]2C[C@@](C)(OC)[C@@H](O)[C@H](C)O2)[C@H](C)[C@@H](O[C@@H]2O[C@H](C)C[C@H](N(C)C)[C@H]2O)[C@](C)(OC)C[C@@H](C)CN[C@H](C)[C@@H](O)[C@]1(C)O	Streptococcus pyogenes	=	1
CC[C@H]1OC(=O)[C@H](C)C(=O)[C@H](C)[C@@H](O[C@@H]2O[C@H](C)C[C@H](N(C)C)[C@H]2O)[C@](C)(OC)C[C@@H](C)CN(C(=O)Nc2ccc(Cl)cc2Cl)[C@H](C)[C@@H](O)[C@]1(C)O	Streptococcus pyogenes	=	16
CC[C@H]1OC(=O)[C@H](C)[C@@H](O)[C@H](C)[C@@H](O[C@@H]2O[C@H](C)C[C@H](N(C)C)[C@H]2O)[C@](C)(O)C[C@@H](C)CN(C(=S)NCc2ccccc2)[C@H](C)[C@@H](O)[C@]1(C)O	Streptococcus pyogenes	>	64
CC[C@H]1OC(=O)[C@H](C)[C@@H](O[C@H]2C[C@@](C)(OC)[C@@H](O)[C@H](C)O2)[C@H](C)[C@@H](O[C@@H]2O[C@H](C)C[C@H](N(C)C)[C@H]2O)[C@](C)(O)C[C@@H](C)C(=O)[C@H](C)[C@@H](O)[C@]1(C)O	Streptococcus pyogenes	=	0.125
CC[C@H]1OC(=O)[C@H](C)C2(O)O[C@@](C)(C[C@@H](C)CN(C(=O)Nc3ccc(Cl)cc3Cl)[C@H](C)[C@@H](O)[C@]1(C)O)[C@H](O[C@@H]1O[C@H](C)C[C@H](N(C)C)[C@H]1O)[C@H]2C	Streptococcus pyogenes	>	64
CC[C@H]1OC(=O)[C@H](C)[C@@H](O)[C@H](C)[C@@H](O[C@@H]2O[C@H](C)C[C@H](N(C)C)[C@H]2O)[C@](C)(O)C[C@@H](C)CN(C(=O)Nc2ccccc2C(F)(F)F)[C@H](C)[C@@H](O)[C@]1(C)O	Streptococcus pyogenes	>	64
CC[C@H]1OC(=O)[C@H](C)[C@@H](O)[C@H](C)[C@@H](O[C@@H]2O[C@H](C)C[C@H](N(C)C)[C@H]2O)[C@](C)(O)C[C@@H](C)CN(C(=O)NCc2ccccc2)[C@H](C)[C@@H](O)[C@]1(C)O	Streptococcus pyogenes	>	64
CC[C@H]1OC(=O)[C@H](C)[C@@H](OC(=O)Cc2ccc([N+](=O)[O-])cc2)[C@H](C)[C@@H](O[C@@H]2O[C@H](C)C[C@H](N(C)C)[C@H]2O)[C@](C)(O)C[C@@H](C)CN(C(=O)Nc2ccc(Cl)cc2Cl)[C@H](C)[C@@H](O)[C@]1(C)O	Streptococcus pyogenes	=	4
CC[C@H]1OC(=O)[C@H](C)[C@@H](O)[C@H](C)[C@@H](O[C@@H]2O[C@H](C)C[C@H](N(C)C)[C@H]2O)[C@](C)(O)C[C@@H](C)CN(C(=O)NC(C)(C)C)[C@H](C)[C@@H](O)[C@]1(C)O	Streptococcus pyogenes	>	64

Numbers sourced from ChEMBL document CHEMBL1143064.
